HCT116 cells: reported GI50 for various molecules.
# output: bare number, implied unit µM

Recorded GI50 for O=C(Cc1ccc(F)cc1)N1CCC(NCC(O)COc2cccc3[nH]c4ccccc4c23)CC1 (stereo not drawn) , please? 26

Recorded GI50 for OC(COc1cccc2[nH]c3ccccc3c12)CN1CCNCC1 (stereo not drawn) , please? 7

Recorded GI50 for COc1ccc(CNC[C@@H](O)COc2cccc3[nH]c4ccccc4c23)c(OC)c1 , please? 8.3

Recorded GI50 for OC(CNCc1ccccc1)COc1cccc2[nH]c3ccccc3c12 (stereo not drawn) , please? 18

Recorded GI50 for O=C(c1ccc([N+](=O)[O-])o1)N1CCN(CC(O)COc2cccc3[nH]c4ccccc4c23)CC1 (stereo not drawn) , please? 6

Recorded GI50 for COc1cc(NCC(O)COc2cccc3[nH]c4ccccc4c23)cc(OC)c1OC (stereo not drawn) , please? 5.8

Recorded GI50 for O=[N+]([O-])c1ccc(CN2CCN(CC(O)COc3cccc4[nH]c5ccccc5c34)CC2)s1 (stereo not drawn) , please? 30

Recorded GI50 for OC(COc1cccc2[nH]c3ccccc3c12)CN1CCc2sccc2C1 (stereo not drawn) , please? 32

Recorded GI50 for N#Cc1ccc(C(=O)N2CCC(NCC(O)COc3cccc4[nH]c5ccccc5c34)CC2)cn1 (stereo not drawn) , please? 5

Recorded GI50 for COc1ccc(CNC[C@H](O)COc2cccc3[nH]c4ccccc4c23)c(OC)c1 , please? 5.6

Recorded GI50 for OC(CNc1nc2ccccc2[nH]1)COc1cccc2[nH]c3ccccc3c12 (stereo not drawn) , please? 27

Recorded GI50 for Cc1csc(NC(=O)CN2CCN(CC(O)COc3cccc4[nH]c5ccccc5c34)CC2)n1 (stereo not drawn) , please? 26

Recorded GI50 for COc1cc(CN2CCN(CC(O)COc3cccc4[nH]c5ccccc5c34)CC2)cc(OC)c1 (stereo not drawn) , please? 25

----------
- Tested on: MDAMB-231/U 251
- experimental.protocol: Anti-cancer screen (MTT), MDAMB-231/U 251 cells
- Format: cell-based
- measurement.conditions: MDAMB-231/U 251, 48 hours, concentrations tested 0.01-100 μM
quantity: IC (TGI)

Recorded IC (TGI) for O=[N+]([O-])c1ccc(CN2CCN(CC(O)COc3cccc4[nH]c5ccccc5c34)CC2)s1 (centres unmarked) , please? 48 µM

Recorded IC (TGI) for Cc1cccc2sc(NC(=O)CN3CCN(CC(O)COc4cccc5[nH]c6ccccc6c45)CC3)nc12 (centres unmarked) , please? > 100 µM

Recorded IC (TGI) for Cc1cc(C)nc(NCC(O)COc2cccc3[nH]c4ccccc4c23)n1 (centres unmarked) , please? > 100 µM

Recorded IC (TGI) for COc1cc(NCC(O)COc2cccc3[nH]c4ccccc4c23)cc(OC)c1OC (centres unmarked) , please? 50 µM

Recorded IC (TGI) for OC(COc1cccc2[nH]c3ccccc3c12)CN1CCN(Cc2ccc(F)c(F)c2)CC1 (centres unmarked) , please? 7 µM

Recorded IC (TGI) for OC(COc1cccc2[nH]c3ccccc3c12)CN1CCNCC1 (centres unmarked) , please? 77 µM

Recorded IC (TGI) for O=C(c1ccc([N+](=O)[O-])o1)N1CCN(CC(O)COc2cccc3[nH]c4ccccc4c23)CC1 (centres unmarked) , please? > 100 µM

Recorded IC (TGI) for O=C(Cc1ccc(F)cc1)N1CCC(NCC(O)COc2cccc3[nH]c4ccccc4c23)CC1 (centres unmarked) , please? 48 µM

----------
Exercise: for every item that follows, state its recorded IC (TGI).
- System: NCIH460 cells
- experimental.protocol: Anti-cancer screen (MTT), NCIH460 cells
- Type: cell-based
- measurement.conditions: Homo sapiens, NCI-H460, NCIH460, 48 hours, concentrations tested 0.01-100 μM
# output: bare number, implied unit µM

Recorded IC (TGI) for O=[N+]([O-])c1ccc(CN2CCN(CC(O)COc3cccc4[nH]c5ccccc5c34)CC2)o1 (stereo not shown) [Example 26] , please? 22

Recorded IC (TGI) for O=C(Cc1ccc(F)cc1)N1CCC(NCC(O)COc2cccc3[nH]c4ccccc4c23)CC1 (stereo not shown) [Example 66] , please? 54

Recorded IC (TGI) for COc1ccc(CNC[C@@H](O)COc2cccc3[nH]c4ccccc4c23)c(OC)c1 [Example 24] , please? 53

Recorded IC (TGI) for OC(COc1cccc2[nH]c3ccccc3c12)CN1CCc2sccc2C1 (stereo not shown) [Example 4] , please? 47

----------
- System: MDAMB-231/U 251
- experimental.protocol: Anti-cancer screen (MTT), MDAMB-231/U 251 cells
- Type: cell-based
- measurement.conditions: MDAMB-231/U 251, 48 hours, concentrations tested 0.01-100 μM, read-out: LC50 (the source's name)
Exercise: for every item that follows, state its recorded CC50.
# output: bare number, implied unit µM

Recorded CC50 for COc1ccc(CNC[C@H](O)COc2cccc3[nH]c4ccccc4c23)c(OC)c1 [Example 25] , please? 81

Recorded CC50 for OC(COc1cccc2[nH]c3ccccc3c12)CN1CCc2sccc2C1 (stereo not shown) [Example 4] , please? 84

----------
- Tested on: NCIH460 cells
- experimental.protocol: Anti-cancer screen (MTT), NCIH460 cells
- Format: cell-based
- measurement.conditions: Homo sapiens, NCI-H460, NCIH460, 48 hours, concentrations tested 0.01-100 μM
- Procedure: Experimental drugs are screened for anti-cancer activity in three cell lines for their GI50, TGI and LC50 values (using five concentrations for each compound). The cell lines are maintained in DMEM containing 10% fetal bovine serum. […] Percent growth is calculated for each compound's concentration relative to the control and zero measurement wells (T0; viability right before compound addition). […]
quantity: IC (TGI)

Recorded IC (TGI) for Cc1cccc2sc(NC(=O)CN3CCN(CC(O)COc4cccc5[nH]c6ccccc6c45)CC3)nc12 (stereo not drawn) , please? > 100 µM

Recorded IC (TGI) for O=C(c1ccc([N+](=O)[O-])o1)N1CCN(CC(O)COc2cccc3[nH]c4ccccc4c23)CC1 (stereo not drawn) , please? 7.5 µM

Recorded IC (TGI) for COc1ccc(CNCC(O)COc2cccc3[nH]c4ccccc4c23)c(OC)c1 (racemic) , please? 18 µM

Recorded IC (TGI) for OC(CNc1nc2ccccc2[nH]1)COc1cccc2[nH]c3ccccc3c12 (stereo not drawn) , please? 35 µM

Recorded IC (TGI) for OC(COc1cccc2[nH]c3ccccc3c12)CN1CCCC1 (stereo not drawn) , please? 42 µM

Recorded IC (TGI) for OC(COc1cccc2[nH]c3ccccc3c12)CN1CCN(Cc2ccc(F)c(F)c2)CC1 (stereo not drawn) , please? 90 µM

Recorded IC (TGI) for OC(CNCc1ccccc1)COc1cccc2[nH]c3ccccc3c12 (stereo not drawn) , please? 35 µM

Recorded IC (TGI) for OC(COc1cccc2[nH]c3ccccc3c12)CN1CCNCC1 (stereo not drawn) , please? 54 µM

Recorded IC (TGI) for Cc1cc(C)nc(NCC(O)COc2cccc3[nH]c4ccccc4c23)n1 (stereo not drawn) , please? > 100 µM

Recorded IC (TGI) for COc1cc(NCC(O)COc2cccc3[nH]c4ccccc4c23)cc(OC)c1OC (stereo not drawn) , please? 45 µM

Recorded IC (TGI) for N#Cc1ccc(C(=O)N2CCC(NCC(O)COc3cccc4[nH]c5ccccc5c34)CC2)cn1 (stereo not drawn) , please? 50 µM

Recorded IC (TGI) for COc1ccc(CNC[C@H](O)COc2cccc3[nH]c4ccccc4c23)c(OC)c1 , please? 55 µM

Recorded IC (TGI) for O=[N+]([O-])c1ccc(CN2CCN(CC(O)COc3cccc4[nH]c5ccccc5c34)CC2)s1 (stereo not drawn) , please? 98 µM

Recorded IC (TGI) for COc1cc(CN2CCN(CC(O)COc3cccc4[nH]c5ccccc5c34)CC2)cc(OC)c1 (stereo not drawn) , please? 60 µM

Recorded IC (TGI) for Cc1csc(NC(=O)CN2CCN(CC(O)COc3cccc4[nH]c5ccccc5c34)CC2)n1 (stereo not drawn) , please? 61 µM

----------
HCT116 cells: reported GI50 for various molecules.

Recorded GI50 for OC(COc1cccc2[nH]c3ccccc3c12)CN1CCN(Cc2ccc(F)c(F)c2)CC1 (stereo not shown) [Example 31] , please? 38 µM

Recorded GI50 for COc1ccc(CNCC(O)COc2cccc3[nH]c4ccccc4c23)c(OC)c1 (racemic) [Example 1] , please? 8.5 µM

Recorded GI50 for O=[N+]([O-])c1ccc(CN2CCN(CC(O)COc3cccc4[nH]c5ccccc5c34)CC2)o1 (stereo not shown) [Example 26] , please? 30 µM

Recorded GI50 for Cc1cccc2sc(NC(=O)CN3CCN(CC(O)COc4cccc5[nH]c6ccccc6c45)CC3)nc12 (stereo not shown) [Example 59] , please? > 100 µM

----------
Exercise: for every item that follows, state its recorded melting point.

Recorded melting point for O=C(c1ccco1)N1CCN(CC(O)COc2cccc3[nH]c4ccccc4c23)CC1 (stereo not drawn) , please? 85.1 to 89.1 °C

Recorded melting point for O=C(Cc1ccc(F)cc1)N1CCN(CC(O)COc2cccc3[nH]c4ccccc4c23)CC1 (stereo not drawn) , please? 79 to 81 °C

Recorded melting point for O=C(/C=C/c1ccc2c(c1)OCO2)N1CCN(CC(O)COc2cccc3[nH]c4ccccc4c23)CC1 (stereo not drawn) , please? 90 to 93 °C

Recorded melting point for O=C(c1cc2ccccc2o1)N1CCN(CC(O)COc2cccc3[nH]c4ccccc4c23)CC1 (stereo not drawn) , please? 93 to 96 °C

Recorded melting point for O=C(CCc1cc2ccccc2[nH]1)N1CCN(CC(O)COc2cccc3[nH]c4ccccc4c23)CC1 (stereo not drawn) , please? 112 to 114 °C

Recorded melting point for O=C(CN1CCN(CC(O)COc2cccc3[nH]c4ccccc4c23)CC1)Nc1ccccc1 (stereo not drawn) , please? 69 to 71 °C

Recorded melting point for COc1cc(OC)c(CN2CCN(CC(O)COc3cccc4[nH]c5ccccc5c34)CC2)c(OC)c1 (stereo not drawn) , please? 119 to 122 °C

Recorded melting point for N#Cc1ccc(C(=O)N2CCN(CC(O)COc3cccc4[nH]c5ccccc5c34)CC2)cn1 (stereo not drawn) , please? 92 to 95 °C

Recorded melting point for CSc1ccc(CN2CCN(CC(O)COc3cccc4[nH]c5ccccc5c34)CC2)cc1 (stereo not drawn) , please? 69 to 71 °C

Recorded melting point for O=C(Cc1ccc(O)c(F)c1)N1CCN(CC(O)COc2cccc3[nH]c4ccccc4c23)CC1 (stereo not drawn) , please? 111 to 113 °C

Recorded melting point for O=C(Cc1c(F)c(F)c(F)c(F)c1F)N1CCN(CC(O)COc2cccc3[nH]c4ccccc4c23)CC1 (stereo not drawn) , please? 93 to 96 °C

Recorded melting point for O=C(c1cc2ccccc2[nH]1)N1CCN(CC(O)COc2cccc3[nH]c4ccccc4c23)CC1 (stereo not drawn) , please? 215 to 218 °C

Recorded melting point for O=C(c1cc([N+](=O)[O-])[nH]n1)N1CCN(CC(O)COc2cccc3[nH]c4ccccc4c23)CC1 (stereo not drawn) , please? 140 to 144 °C

Recorded melting point for COc1ccc(C(=O)N2CCN(CC(O)COc3cccc4[nH]c5ccccc5c34)CC2)cc1OC (stereo not drawn) , please? 98 to 101 °C

Recorded melting point for OC(COc1cccc2[nH]c3ccccc3c12)CN1CCN(Cc2nccs2)CC1 (stereo not drawn) , please? 57 to 62 °C

Recorded melting point for O=C(c1cnc2ccccc2n1)N1CCN(CC(O)COc2cccc3[nH]c4ccccc4c23)CC1 (stereo not drawn) , please? 89 to 92 °C

Recorded melting point for OC(COc1cccc2[nH]c3ccccc3c12)CN1CCN(CC2CC2)CC1 (stereo not drawn) , please? 51 to 56 °C

Recorded melting point for COc1ccc(CC(=O)N2CCC(NCC(O)COc3cccc4[nH]c5ccccc5c34)CC2)cc1 (stereo not drawn) , please? 54 to 57 °C

Recorded melting point for COc1ccc(CC(=O)N2CCN(CC(O)COc3cccc4[nH]c5ccccc5c34)CC2)cc1 (stereo not drawn) , please? 166 to 169 °C

Recorded melting point for OC(COc1cccc2[nH]c3ccccc3c12)CN1CCN(Cc2ccc(Br)cc2F)CC1 (stereo not drawn) , please? 68 to 70 °C

Recorded melting point for O=C(c1ccc2c(c1)OCO2)N1CCN(CC(O)COc2cccc3[nH]c4ccccc4c23)CC1 (stereo not drawn) , please? 70 to 73 °C
